# Test system: Escherichia coli TOP10
# assay-notes: shrunken log2 fold change of peptide-encoding DNA abundance (4.5 h post-induction vs induction); higher = less antimicrobial activity (less host growth inhibition)
# recorded-conditions: time post-induction: 4.5 h; library: site-saturation at positions 5, 18, 19, 20
Please provide measured shrunken log2 fold change for the entries that follow.
Could you keep your reply to the number by itself?

Measured shrunken log2 fold change of `RRIRRRPPRLPRPRPRPDRRPRP` : 0.108

Measured shrunken log2 fold change of `RRIRRRPPRLPRPRPRPEMVPRP` : 0.0411

Measured shrunken log2 fold change of `RRIRLRPPRLPRPRPRPFKVPRP` : 0.0321

Measured shrunken log2 fold change of `RRIRNRPPRLPRPRPRPNWFPRP` : -0.145

Measured shrunken log2 fold change of `RRIRDRPPRLPRPRPRPMMAPRP` : -0.00174

Measured shrunken log2 fold change of `RRIRVRPPRLPRPRPRPETTPRP` : 0.348

Measured shrunken log2 fold change of `RRIRWRPPRLPRPRPRPNEQPRP` : -0.00804

Measured shrunken log2 fold change of `RRIRRRPPRLPRPRPRPGNTPRP` : -0.142

Measured shrunken log2 fold change of `RRIRWRPPRLPRPRPRPEPMPRP` : 0.38

Measured shrunken log2 fold change of `RRIRPRPPRLPRPRPRPVAWPRP` : 0.225

Measured shrunken log2 fold change of `RRIRIRPPRLPRPRPRPIPQPRP` : -0.14

Measured shrunken log2 fold change of `RRIRHRPPRLPRPRPRPFAMPRP` : -0.424

Measured shrunken log2 fold change of `RRIRSRPPRLPRPRPRPTTLPRP` : -0.0324

Measured shrunken log2 fold change of `RRIRVRPPRLPRPRPRPYEWPRP` : -0.303

Measured shrunken log2 fold change of `RRIRHRPPRLPRPRPRPYMNPRP` : -1.04

====

# System: Escherichia coli TOP10
# assay-notes: shrunken log2 fold change of peptide-encoding DNA abundance (4.5 h post-induction vs induction); higher = less antimicrobial activity (less host growth inhibition)
# recorded-conditions: time post-induction: 4.5 h; library: site-saturation at positions 5, 18, 19, 20
endpoint-name: shrunken log2 fold change
Could you keep your reply to the number by itself?

Measured shrunken log2 fold change of `RRIRERPPRLPRPRPRPLNLPRP` : -0.312

Measured shrunken log2 fold change of `RRIRWRPPRLPRPRPRPNYYPRP` : -0.705

Measured shrunken log2 fold change of `RRIRRRPPRLPRPRPRPSIWPRP` : 0.032

Measured shrunken log2 fold change of `RRIRRRPPRLPRPRPRPQVPPRP` : 0.11

Measured shrunken log2 fold change of `RRIRLRPPRLPRPRPRPMREPRP` : 1.25

Measured shrunken log2 fold change of `RRIRFRPPRLPRPRPRPFTKPRP` : -0.411

Measured shrunken log2 fold change of `RRIRLRPPRLPRPRPRPPWDPRP` : 0.344

Measured shrunken log2 fold change of `RRIRCRPPRLPRPRPRPGIVPRP` : -0.0688

Measured shrunken log2 fold change of `RRIRARPPRLPRPRPRPAWTPRP` : -0.0258

Measured shrunken log2 fold change of `RRIRNRPPRLPRPRPRPGKFPRP` : -0.034

Measured shrunken log2 fold change of `RRIRDRPPRLPRPRPRPWITPRP` : -0.123

Measured shrunken log2 fold change of `RRIRTRPPRLPRPRPRPQPRPRP` : 0.439

Measured shrunken log2 fold change of `RRIRDRPPRLPRPRPRPQVIPRP` : -0.0205

Measured shrunken log2 fold change of `RRIRMRPPRLPRPRPRPDQAPRP` : 0.357

Measured shrunken log2 fold change of `RRIRVRPPRLPRPRPRPIDQPRP` : 0.216

====

# Test system: Escherichia coli TOP10
# assay-notes: shrunken log2 fold change of peptide-encoding DNA abundance (4.5 h post-induction vs induction); higher = less antimicrobial activity (less host growth inhibition)
# recorded-conditions: time post-induction: 4.5 h; library: site-saturation at positions 5, 18, 19, 20
Recorded shrunken log2 fold change split into classes class 1 = under -0.07, class 2 = from -0.07 up to 0.1, class 3 = 0.1 and over

Band of `RRIRSRPPRLPRPRPRPLSRPRP` ?
class 2

Band of `RRIRKRPPRLPRPRPRPEWNPRP` ?
class 3

Band of `RRIRLRPPRLPRPRPRPSQQPRP` ?
class 2

Band of `RRIRARPPRLPRPRPRPDEMPRP` ?
class 3

Band of `RRIRTRPPRLPRPRPRPTSVPRP` ?
class 2

Band of `RRIRIRPPRLPRPRPRPTEFPRP` ?
class 1

Band of `RRIRQRPPRLPRPRPRPCTTPRP` ?
class 1

Band of `RRIRCRPPRLPRPRPRPIHDPRP` ?
class 1

Band of `RRIRNRPPRLPRPRPRPTAEPRP` ?
class 2

Band of `RRIRARPPRLPRPRPRPMSRPRP` ?
class 1

Band of `RRIRTRPPRLPRPRPRPKTDPRP` ?
class 1

Band of `RRIRQRPPRLPRPRPRPANYPRP` ?
class 2

Band of `RRIRARPPRLPRPRPRPERQPRP` ?
class 3

Band of `RRIRMRPPRLPRPRPRPLEFPRP` ?
class 1

Band of `RRIRGRPPRLPRPRPRPDFCPRP` ?
class 3

Band of `RRIRRRPPRLPRPRPRPDGVPRP` ?
class 3

Band of `RRIRFRPPRLPRPRPRPCQKPRP` ?
class 2

Band of `RRIRARPPRLPRPRPRPCTIPRP` ?
class 2

Band of `RRIRDRPPRLPRPRPRPCYWPRP` ?
class 2

Band of `RRIRRRPPRLPRPRPRPSVQPRP` ?
class 3

Band of `RRIRDRPPRLPRPRPRPDSNPRP` ?
class 3

Band of `RRIRGRPPRLPRPRPRPVDSPRP` ?
class 2

Band of `RRIRHRPPRLPRPRPRPIYSPRP` ?
class 2

Band of `RRIRYRPPRLPRPRPRPPQYPRP` ?
class 1

Band of `RRIRKRPPRLPRPRPRPNQVPRP` ?
class 1

Band of `RRIRCRPPRLPRPRPRPINWPRP` ?
class 1

Band of `RRIRGRPPRLPRPRPRPMSTPRP` ?
class 3

Band of `RRIRGRPPRLPRPRPRPVDNPRP` ?
class 3

Band of `RRIRERPPRLPRPRPRPLDEPRP` ?
class 1

Band of `RRIRYRPPRLPRPRPRPIYFPRP` ?
class 3

====

# Tested on: Escherichia coli TOP10;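 also: peptides expressed intracellularly from a pBAD plasmid library in pooled LB shake-flask culture, induced with 0.3% L-arabinose, DNA abundance read by NGS, three biological replicates, DESeq2 with apeglm shrinkage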
# assay-notes: shrunken log2 fold change of peptide-encoding DNA abundance (4.5 h post-induction vs induction); higher = less antimicrobial activity (less host growth inhibition)
# recorded-conditions: time post-induction: 4.5 h; library: site-saturation at positions 5, 18, 19, 20
endpoint-name: shrunken log2 fold change
Could you keep your reply to the number by itself?

Escherichia coli TOP10 shrunken log2 fold change of `RRIRSRPPRLPRPRPRPNHGPRP` is -0.4

Escherichia coli TOP10 shrunken log2 fold change of `RRIRDRPPRLPRPRPRPQDAPRP` is -0.103

Escherichia coli TOP10 shrunken log2 fold change of `RRIRWRPPRLPRPRPRPLFCPRP` is 0.22

Escherichia coli TOP10 shrunken log2 fold change of `RRIRERPPRLPRPRPRPFWIPRP` is -0.165

Escherichia coli TOP10 shrunken log2 fold change of `RRIRHRPPRLPRPRPRPMSRPRP` is -0.0252

Escherichia coli TOP10 shrunken log2 fold change of `RRIRDRPPRLPRPRPRPPHFPRP` is 0.173

Escherichia coli TOP10 shrunken log2 fold change of `RRIRRRPPRLPRPRPRPFTKPRP` is -0.221

Escherichia coli TOP10 shrunken log2 fold change of `RRIRYRPPRLPRPRPRPHPAPRP` is -0.333

Escherichia coli TOP10 shrunken log2 fold change of `RRIRGRPPRLPRPRPRPMQSPRP` is 0.47

Escherichia coli TOP10 shrunken log2 fold change of `RRIRFRPPRLPRPRPRPFCPPRP` is -0.386

Escherichia coli TOP10 shrunken log2 fold change of `RRIRMRPPRLPRPRPRPVAPPRP` is 0.945

Escherichia coli TOP10 shrunken log2 fold change of `RRIRHRPPRLPRPRPRPMPLPRP` is -0.0217

Escherichia coli TOP10 shrunken log2 fold change of `RRIRLRPPRLPRPRPRPQCMPRP` is 0.0865

Escherichia coli TOP10 shrunken log2 fold change of `RRIRERPPRLPRPRPRPAKWPRP` is 0.0478

Escherichia coli TOP10 shrunken log2 fold change of `RRIRTRPPRLPRPRPRPPWNPRP` is -0.288

Escherichia coli TOP10 shrunken log2 fold change of `RRIRKRPPRLPRPRPRPLHCPRP` is 0.0213

Escherichia coli TOP10 shrunken log2 fold change of `RRIRARPPRLPRPRPRPLHEPRP` is 0.314

Escherichia coli TOP10 shrunken log2 fold change of `RRIRKRPPRLPRPRPRPELPPRP` is 0.114

Escherichia coli TOP10 shrunken log2 fold change of `RRIRKRPPRLPRPRPRPAHHPRP` is -0.00814

Escherichia coli TOP10 shrunken log2 fold change of `RRIRMRPPRLPRPRPRPKVRPRP` is 0.00262

Escherichia coli TOP10 shrunken log2 fold change of `RRIRQRPPRLPRPRPRPCPVPRP` is -0.477

Escherichia coli TOP10 shrunken log2 fold change of `RRIRTRPPRLPRPRPRPYPAPRP` is -0.277

Escherichia coli TOP10 shrunken log2 fold change of `RRIRGRPPRLPRPRPRPRHTPRP` is 0.7

Escherichia coli TOP10 shrunken log2 fold change of `RRIRTRPPRLPRPRPRPSDWPRP` is 0.0388

Escherichia coli TOP10 shrunken log2 fold change of `RRIRHRPPRLPRPRPRPNIDPRP` is -0.153

Escherichia coli TOP10 shrunken log2 fold change of `RRIRRRPPRLPRPRPRPFGQPRP` is -0.336

Escherichia coli TOP10 shrunken log2 fold change of `RRIRRRPPRLPRPRPRPDPDPRP` is -0.0342

Escherichia coli TOP10 shrunken log2 fold change of `RRIRHRPPRLPRPRPRPHRPPRP` is -0.133

Escherichia coli TOP10 shrunken log2 fold change of `RRIRKRPPRLPRPRPRPPHSPRP` is 0.509

Escherichia coli TOP10 shrunken log2 fold change of `RRIRHRPPRLPRPRPRPYPTPRP` is -0.219

Escherichia coli TOP10 shrunken log2 fold change of `RRIRRRPPRLPRPRPRPAAHPRP` is 0.361

Escherichia coli TOP10 shrunken log2 fold change of `RRIRARPPRLPRPRPRPELAPRP` is 1.39

Escherichia coli TOP10 shrunken log2 fold change of `RRIRFRPPRLPRPRPRPNYCPRP` is -0.499

Escherichia coli TOP10 shrunken log2 fold change of `RRIRDRPPRLPRPRPRPSWAPRP` is -0.102

Escherichia coli TOP10 shrunken log2 fold change of `RRIRARPPRLPRPRPRPTPDPRP` is 0.848

Escherichia coli TOP10 shrunken log2 fold change of `RRIRNRPPRLPRPRPRPHDCPRP` is -0.124

Escherichia coli TOP10 shrunken log2 fold change of `RRIRPRPPRLPRPRPRPIYRPRP` is -0.158

Escherichia coli TOP10 shrunken log2 fold change of `RRIRMRPPRLPRPRPRPAWVPRP` is 0.375

Escherichia coli TOP10 shrunken log2 fold change of `RRIRWRPPRLPRPRPRPICPPRP` is -0.0872

Escherichia coli TOP10 shrunken log2 fold change of `RRIRYRPPRLPRPRPRPFFSPRP` is -0.77

Escherichia coli TOP10 shrunken log2 fold change of `RRIRSRPPRLPRPRPRPDQFPRP` is -0.167

Escherichia coli TOP10 shrunken log2 fold change of `RRIRQRPPRLPRPRPRPDFGPRP` is 0.0964

Escherichia coli TOP10 shrunken log2 fold change of `RRIRNRPPRLPRPRPRPMKEPRP` is 0.0626

Escherichia coli TOP10 shrunken log2 fold change of `RRIRTRPPRLPRPRPRPMYYPRP` is 0.0219

Escherichia coli TOP10 shrunken log2 fold change of `RRIRMRPPRLPRPRPRPCLMPRP` is 0.0359

Escherichia coli TOP10 shrunken log2 fold change of `RRIRHRPPRLPRPRPRPYVEPRP` is 0.0369

Escherichia coli TOP10 shrunken log2 fold change of `RRIRSRPPRLPRPRPRPGPCPRP` is 0.0781

Escherichia coli TOP10 shrunken log2 fold change of `RRIRQRPPRLPRPRPRPNTAPRP` is -0.0235

Escherichia coli TOP10 shrunken log2 fold change of `RRIRGRPPRLPRPRPRPVHYPRP` is 0.109

Escherichia coli TOP10 shrunken log2 fold change of `RRIRLRPPRLPRPRPRPPGRPRP` is 0.66

Escherichia coli TOP10 shrunken log2 fold change of `RRIRDRPPRLPRPRPRPVVQPRP` is -0.0248

Escherichia coli TOP10 shrunken log2 fold change of `RRIRDRPPRLPRPRPRPHYKPRP` is -0.297

Escherichia coli TOP10 shrunken log2 fold change of `RRIRGRPPRLPRPRPRPRMFPRP` is 0.837

Escherichia coli TOP10 shrunken log2 fold change of `RRIRIRPPRLPRPRPRPNCWPRP` is 0.0114

Escherichia coli TOP10 shrunken log2 fold change of `RRIRVRPPRLPRPRPRPDADPRP` is 0.793

Escherichia coli TOP10 shrunken log2 fold change of `RRIRLRPPRLPRPRPRPYVIPRP` is -0.662

Escherichia coli TOP10 shrunken log2 fold change of `RRIRPRPPRLPRPRPRPWYWPRP` is -0.161

Escherichia coli TOP10 shrunken log2 fold change of `RRIRLRPPRLPRPRPRPGISPRP` is -0.00752

Escherichia coli TOP10 shrunken log2 fold change of `RRIRSRPPRLPRPRPRPVAEPRP` is 1.28

Escherichia coli TOP10 shrunken log2 fold change of `RRIRHRPPRLPRPRPRPLSSPRP` is 0.0305

Escherichia coli TOP10 shrunken log2 fold change of `RRIRTRPPRLPRPRPRPWIYPRP` is -0.0134

Escherichia coli TOP10 shrunken log2 fold change of `RRIRHRPPRLPRPRPRPWDGPRP` is -0.0969

Escherichia coli TOP10 shrunken log2 fold change of `RRIRARPPRLPRPRPRPDQIPRP` is 0.327
